assay: gradient 5% acetonitrile 3 min, to 50% in 2 min, to 85% in 15 min, held 3 min, 100 µL/min; settings: column: Zorbax Extend-C18 2.1 x 50 mm; eluents: water / acetonitrile, 0.1% formic acid
# label = y if RP-LC retention time < 700 s else n

Below are worked cases with known answers.
O=S(=O)(c1ccccc1)N1CCc2nc(-c3ccccc3)ncc2C1	n
Cc1cccc(NC(=O)Nc2nc(C)c(C(=O)NC3CCCC3)s2)c1	n
Cc1ccc(Nc2nc(C)cc(N3CCN(C(=O)Nc4cccc(C(F)(F)F)c4)CC3)n2)cc1	n

[ask] Please indicate whether the reported RP-LC retention time of COc1ccc(NC(=O)C2CCN(S(=O)(=O)c3cc(-c4noc(C)n4)cs3)CC2)cc1OC is strictly below 700 s.
[reply] n

[ask] Now consider CC1CCN(CCNc2ccc(-c3nc(-c4ccc(F)cc4)no3)cn2)CC1 .
[reply] n

[ask] Record: CCOc1ccc(CNC(=O)Cn2cnc3onc(C)c3c2=O)cc1
[reply] n

[ask] Also CC1CCN(S(=O)(=O)c2ccc3nn(CC(=O)OC(C)(C)C)c(=O)n3c2)CC1 ?
[reply] n

[ask] Similarly, CSc1cccc(NC(=O)Cn2nc(C(=O)N3CCOCC3)cc2C2CC2)c1 ?
[reply] n

[ask] What would you report for Cc1nn(C(C)C(=O)NCCCN2CCc3ccccc3C2)c(=O)c2nn(-c3ccccc3)c(C)c12 (stereo not given) ?
[reply] y

[ask] Now consider COC(=O)c1ccc(-c2nc3cnccn3c2Nc2ccc(OC)cc2)cc1 .
[reply] n

[ask] Item: Cn1nnnc1SCCNCc1ccc(Cl)cc1Cl
[reply] y

[ask] Now the same for Cc1sc(C)c(C(=O)NC2(c3ccc(C(=O)O)cc3)CC2)c1Cc1ccc(C(F)(F)F)cc1
[reply] n

[ask] And Cc1cc(C)c(CNC(=O)C2CCN(c3cncnc3N3CCN(C)CC3)CC2)c(C)c1 ?
[reply] y

[ask] // repeat for CCNC(=O)c1sc(Nc2cccc(C)n2)nc1C and report
[reply] y

[ask] Now give it for NC(=O)Cc1csc(NC(=O)c2coc(NC(=O)c3ccccc3)n2)n1 too.
[reply] y

[ask] Next compound up: COc1ccc(CN2CCC([C@@H]3CNC[C@H]3CO)CC2)c(OC)c1
[reply] y

[ask] One more compound: COc1ccc(OC)c(-c2ccc(=O)n(Cc3ccccn3)n2)c1
[reply] y

[ask] Same lookup for CCNC(=O)Nc1ccc2c(c1)CN(S(=O)(=O)c1ccc3c(c1)CCC3)CCO2 , please.
[reply] n

[ask] Please give the result for Cc1cccc2c(C(=O)O)cc(N3CCN(C)CC3)nc12 too.
[reply] y
